Protocol description: RP, Thermo Scientific Acclaim RSLC 120 C18, 100 × 2.1 mm, 2.2 µm, 30 °C, 0.2 mL/min, estimated dead time 1.1 min; A: 90% water + 10% methanol + 0.01% formic acid + 5 mM ammonium formate, pH 3.61; B: methanol + 0.01% formic acid + 5 mM ammonium formate, pH 3.61; gradient (min/%B) 0/1 1/1 2/39 13/99.9 15/99.9 15.1/1 20.1/1
Test parameters: stereoisomer not certain
Classification by LC retention time follows these ranges: lo (below 7 min), mid (7 min to below 10 min), hi (10 min or more)

{"columns": ["Compound", "Assigned category"],
 "data": [
  ["O=C(CC1NCCCC1O)Cn1cnc2cc(Br)c(Cl)cc2c1=O (centres undefined)", "lo"],
  ["COc1ccc(CNC(=O)c2cc([N+](=O)[O-])ccc2NC(C)CO)cc1OC (centres undefined)", "mid"],
  ["CCCOP(=O)(OCCC)Oc1ccc(SC)cc1", "hi"],
  ["CNP(=O)(OC)Oc1ccc(C(C)(C)C)cc1Cl (centres undefined) [Crufomate]", "hi"],
  ["CC(C)C(N)C(=O)OCC(CO)OCn1cnc2c(=O)[nH]c(N)nc21 (centres undefined)", "lo"],
  ["CN1CCN(c2cc3c(cc2F)c(=O)c(C(=O)O)cn3-c2ccc(F)cc2)CC1", "lo"],
  ["CC(C)(C)Nc1nc(N)nc(Cl)n1", "mid"],
  ["CCCCc1ncc(C=C(Cc2cccs2)C(=O)O)n1Cc1ccc(C(=O)O)cc1", "mid"]
]}

Which of the defined bands does the recorded LC retention time of CCOC(=O)C(C)N(C(=O)c1ccccc1)c1ccc(Cl)c(Cl)c1 (centres undefined) sit within?
hi

Quick check: band for CCCCCCCCc1ccc(OCCOCCO)cc1
hi
